Hello, the source for this data is patent US20200339625A1, in case you need it.

Can you tell me Blood uptake for the items I'm about to list?
# Tested on: mice bearing PSMA-expressing LNCAP cancer xenografts
# Procedure Details: Biodistribution of 68Ga-labeled compounds
# Assay type: in vivo
# Settings: 1 h post-injection

Some compounds with recorded Blood uptake:
compound="O=C([O-])CN1CCN(CC(=O)[O-])CCN(CC(=O)NCCCC[C@H](NC(=O)CNC(=O)CCCc2ccccc2)C(=O)NC[C@H]2CC[C@H](C(=O)N[C@@H](Cc3ccc4ccccc4c3)C(=O)NCCCC[C@H](NC(=O)N[C@@H](CCC(=O)O)C(=O)O)C(=O)O)CC2)CCN(CC(=O)[O-])CC1.[68Ga+3] [^68Ga-HTK03056]" endpoint_value="4.68 ± 1.09 % ID/g"
compound="O=C([O-])CN1CCN(CC(=O)[O-])CCN(CC(=O)NCCCC[C@H](NC(=O)CNC(=O)CCCc2ccc(I)cc2)C(=O)NC[C@H]2CC[C@H](C(=O)N[C@@H](Cc3ccc4ccccc4c3)C(=O)NCCCC[C@H](NC(=O)N[C@@H](CCC(=O)O)C(=O)O)C(=O)O)CC2)CCN(CC(=O)[O-])CC1.[68Ga+3] [^68Ga-HTK03024]" endpoint_value="27.0 ± 5.63 % ID/g"
compound="COc1ccc(CCCC(=O)NCC(=O)N[C@@H](CCCCNC(=O)CN2CCN(CC(=O)[O-])CCN(CC(=O)[O-])CCN(CC(=O)[O-])CC2)C(=O)NC[C@H]2CC[C@H](C(=O)N[C@@H](Cc3ccc4ccccc4c3)C(=O)NCCCC[C@H](NC(=O)N[C@@H](CCC(=O)O)C(=O)O)C(=O)O)CC2)cc1.[68Ga+3] [^68Ga-HTK03086]" endpoint_value="12.1 ± 0.60 % ID/g"
compound="CCCCCCC(NC(=O)C1CCC(CNC(=O)CN2CCN(CC(=O)[O-])CCN(CC(=O)[O-])CCN(CC(=O)[O-])CC2)CC1)C(=O)NCCCCC(NC(=O)NC(CCC(=O)O)C(=O)O)C(=O)O.[68Ga+3] (stereo not shown) [^68Ga-HTK03026]" endpoint_value="0.70 ± 0.19 % ID/g"
compound="Nc1ccc(CCCC(=O)NCC(=O)N[C@@H](CCCCNC(=O)CN2CCN(CC(=O)[O-])CCN(CC(=O)[O-])CCN(CC(=O)[O-])CC2)C(=O)NC[C@H]2CC[C@H](C(=O)N[C@@H](Cc3ccc4ccccc4c3)C(=O)NCCCC[C@H](NC(=O)N[C@@H](CCC(=O)O)C(=O)O)C(=O)O)CC2)cc1.[68Ga+3] [^68Ga-HTK03087]" endpoint_value="1.74 ± 0.11 % ID/g"
compound="O=C([O-])CN1CCN(CC(=O)[O-])CCN(CC(=O)NCCCC[C@H](NC(=O)CNC(=O)CCCc2ccc(Br)cc2)C(=O)NC[C@H]2CC[C@H](C(=O)N[C@@H](Cc3ccc4ccccc4c3)C(=O)NCCCC[C@H](NC(=O)N[C@@H](CCC(=O)O)C(=O)O)C(=O)O)CC2)CCN(CC(=O)[O-])CC1.[68Ga+3] [^68Ga-HTK03058]" endpoint_value="26.7 ± 3.02 % ID/g"

The recorded Blood uptake for O=C([O-])CN1CCN(CC(=O)[O-])CCN(CC(=O)NCCCC[C@H](NC(=O)CNC(=O)CCCc2ccc(Cl)cc2)C(=O)NC[C@H]2CC[C@H](C(=O)N[C@@H](Cc3ccc4ccccc4c3)C(=O)NCCCC[C@H](NC(=O)N[C@@H](CCC(=O)O)C(=O)O)C(=O)O)CC2)CCN(CC(=O)[O-])CC1.[68Ga+3] [^68Ga-HTK03055] is 22.1 ± 2.04 % ID/g
